- method summary: coronary ligated dogs, antiarrhythmic effect and toxicity, intravenous infusion (Harris procedure)
- Format: in vivo, dog
- run conditions: dog, in vivo, iv, Dose Producing Toxicity (profound head tremors)
readout label: dose producing toxicity (mg/kg)
Give the number; mg/kg is assumed, so skip it.

Exercise: Entry under review: CCN(CC)CC(=O)Nc1c(Cc2nccc3ccccc23)ccc(OC)c1OC [Compound 3] . Reported dose producing toxicity?
Key: 12.5

---

Please provide measured Toxicity: Ataxia (number of mice) for the entries that follow.
- Tested on: mice
- method summary: central nervous system toxicity observation in mice (ataxia, convulsions, loss of righting reflex, death)
- Format: in vivo, mouse (female Swiss albino, Ham/ICR)
- run conditions: 100 mg/kg s.c., 10 mice, 20 min observation
A bare number is all that is needed in reply.

Exercise: Entry under review: CCNCC(=O)Nc1c(Cc2nccc3ccccc23)ccc(OC)c1OC . Reported Toxicity: Ataxia (number of mice)?
Key: 0

Exercise: # repeat for COc1ccc(Cc2nccc3ccccc23)c(NC(=O)C(C)N)c1OC (stereo not drawn)
Key: 0

Exercise: # repeat for CCN(CC)CC(=O)Nc1cc(OC)c(OC)cc1Cc1nccc2cc(OC)c(OC)cc12
Key: 0
